target: PDZRN4_1, Q6ZMN7; test: holdup assay; parameters: key: below the threshold = too weak to quantify, mostly under pKd 3.1 to 4; conditions: plain residues with an end cap or a label only (N-terminal biotin on a linker: ado-ado)
Sequence (Q6ZMN7 213-318): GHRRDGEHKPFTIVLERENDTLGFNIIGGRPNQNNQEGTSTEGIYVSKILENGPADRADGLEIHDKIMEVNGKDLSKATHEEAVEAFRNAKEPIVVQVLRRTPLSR
Below, each entry is listed alongside its reported pKd.
// keep it numeric: no unit symbol after the value

INSERT INTO measurements (binder, quantitative_readout) VALUES
  ('NKSEPFLTWL [WWTR1, Q9GZV5]', 4.27);

Okay, next one:
The value of pKd measured for the binder THREVKFTSL [CD46, P15529] turned out to be 4.57
